test: Toxicity in ip dosed ICR mouse assessed as maximum tolerated dose; type: organism-based; conditions: in vivo
READOUT NAME: MTD

Exercise: Look up MTD for this compound: COc1cc(C(=O)c2c[nH]c(-c3cccc4[nH]ccc34)n2)cc(OC)c1OC
Solution: ≤ 65 mg/kg

###

test system: M14; assay: Antiproliferative activity against human M14 cells after 72 hrs by MTT assay; type: functional, cell-based; settings: M14, 72 h
Entries and their measured IC50 follow.
All answers are understood in nM, so give the number only.

Here is how some molecules turned out for IC50.
>  <COMPOUND STRING>
COc1cc(C(=O)c2c[nH]c(-c3c[nH]c4cc(F)ccc34)n2)cc(OC)c1OC

>  <SYSTEM TESTED>
M14

>  <REPORTED RESULT>
5.8

$$$$
>  <COMPOUND STRING>
COc1cc(C(=O)c2c[nH]c(-c3c[nH]c4ccc(C)cc34)n2)cc(OC)c1OC

>  <SYSTEM TESTED>
M14

>  <REPORTED RESULT>
177

$$$$
>  <COMPOUND STRING>
COc1cc(C(=O)c2c[nH]c(-c3c[nH]c4cccc(Br)c34)n2)cc(OC)c1OC

>  <SYSTEM TESTED>
M14

>  <REPORTED RESULT>
10.4

$$$$
>  <COMPOUND STRING>
COc1cc(C(=O)c2c[nH]c(-c3c[nH]c4ccc(F)cc34)n2)cc(OC)c1OC

>  <SYSTEM TESTED>
M14

>  <REPORTED RESULT>
18

$$$$

Exercise: Look up IC50 for this molecule: COc1cc(C(=O)c2c[nH]c(-c3c[nH]c4cccc(F)c34)n2)cc(OC)c1OC
Solution: 8.2

Exercise: Same lookup for COc1cc(C(=O)c2c[nH]c(-c3cccc4[nH]ccc34)n2)cc(OC)c1OC , please.
Solution: 3.7
